Consider molecules characterized by their IC50 with FGFR2 (Homo sapiens, UniProt P21802).
Sequence (P21802 22-821): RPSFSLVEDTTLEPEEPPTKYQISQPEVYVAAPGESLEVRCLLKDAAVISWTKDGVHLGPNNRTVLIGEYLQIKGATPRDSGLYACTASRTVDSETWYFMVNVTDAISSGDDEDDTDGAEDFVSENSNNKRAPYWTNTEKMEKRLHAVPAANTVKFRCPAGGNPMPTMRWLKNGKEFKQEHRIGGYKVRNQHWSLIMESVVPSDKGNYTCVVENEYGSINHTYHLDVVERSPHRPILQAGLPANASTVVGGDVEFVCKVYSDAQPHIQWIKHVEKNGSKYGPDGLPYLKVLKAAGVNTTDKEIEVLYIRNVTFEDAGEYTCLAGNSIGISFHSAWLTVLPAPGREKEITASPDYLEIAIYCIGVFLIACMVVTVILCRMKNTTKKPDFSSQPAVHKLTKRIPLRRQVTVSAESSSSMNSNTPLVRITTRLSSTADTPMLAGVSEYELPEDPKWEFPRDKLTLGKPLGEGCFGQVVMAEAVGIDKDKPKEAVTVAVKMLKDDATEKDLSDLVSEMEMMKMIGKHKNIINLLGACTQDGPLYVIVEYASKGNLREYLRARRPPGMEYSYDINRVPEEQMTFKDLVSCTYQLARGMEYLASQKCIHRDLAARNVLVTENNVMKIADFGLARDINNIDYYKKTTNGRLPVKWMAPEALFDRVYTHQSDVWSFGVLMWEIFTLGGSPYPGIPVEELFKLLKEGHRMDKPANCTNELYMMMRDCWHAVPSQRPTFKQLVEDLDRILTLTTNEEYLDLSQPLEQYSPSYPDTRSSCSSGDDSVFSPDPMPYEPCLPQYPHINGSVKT
Use nM as the unit, but write only the number.

QUERY: For the molecule C=CC(=O)N1CC[C@H](Nc2ncc3cc(-c4c(Cl)c(OC)cc(OC)c4Cl)ccc3n2)C1 [Compound 5] , what IC50 is on record?
RESULT: 5.5

QUERY: For the molecule C=CC(=O)N1C[C@@H](C)[C@H](Nc2ncc3cc(-c4c(Cl)c(OC)cc(OC)c4Cl)ccc3n2)C1 [Compound 20] , what IC50 is on record?
RESULT: 15

----------
Record form. Attribute: IC50. Fill in for each entry.
# experimental_target: FGFR4 (Homo sapiens, UniProt P22455)
# Sequence (P22455 22-802): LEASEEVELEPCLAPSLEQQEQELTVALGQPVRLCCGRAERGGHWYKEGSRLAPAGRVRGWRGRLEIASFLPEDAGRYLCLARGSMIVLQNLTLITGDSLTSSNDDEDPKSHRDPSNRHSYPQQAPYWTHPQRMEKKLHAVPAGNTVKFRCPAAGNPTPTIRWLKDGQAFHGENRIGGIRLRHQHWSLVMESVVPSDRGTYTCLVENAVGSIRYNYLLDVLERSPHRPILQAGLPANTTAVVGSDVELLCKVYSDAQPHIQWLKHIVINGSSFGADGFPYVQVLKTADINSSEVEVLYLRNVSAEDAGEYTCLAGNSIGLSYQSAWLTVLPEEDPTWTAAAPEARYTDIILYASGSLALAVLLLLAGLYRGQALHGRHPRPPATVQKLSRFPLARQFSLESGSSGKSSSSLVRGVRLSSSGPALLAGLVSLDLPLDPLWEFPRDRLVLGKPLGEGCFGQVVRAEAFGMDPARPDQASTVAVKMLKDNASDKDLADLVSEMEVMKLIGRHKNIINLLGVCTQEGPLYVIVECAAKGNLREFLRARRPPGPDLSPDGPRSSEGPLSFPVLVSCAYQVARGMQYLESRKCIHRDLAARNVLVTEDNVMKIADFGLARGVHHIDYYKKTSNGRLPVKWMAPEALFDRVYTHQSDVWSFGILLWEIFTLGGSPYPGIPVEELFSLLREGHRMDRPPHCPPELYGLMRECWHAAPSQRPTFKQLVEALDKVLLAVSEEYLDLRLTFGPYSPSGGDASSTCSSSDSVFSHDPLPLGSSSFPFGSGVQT
# test_summary: Enzymatic activity test (LabChip EZ Reader II / Caliper), FGFR4
# Type: biochemical
# assay_context: FGFR4(h), FAM-labelled polypeptide substrate and ATP, 30 min incubation; read-out: Inhibitory activity against FGFR (IC50) FGFR4
Use nM as the unit, but write only the number.

QUERY: For the compound C=CC(=O)N1CCC(Nc2ncc3cc(-c4c(Cl)c(OC)cc(OC)c4Cl)ccc3n2)CC1 [Compound 10] , what IC50 is on record?
RESULT: 177

QUERY: For the compound C=CC(=O)N1CC[C@H](Nc2ncc3cc(-c4c(Cl)c(OC)cc(OC)c4Cl)ccc3n2)C1 [Compound 5] , what IC50 is on record?
RESULT: 175

QUERY: For the compound CC#CC(=O)N1CCC(Nc2ncc3cc(-c4c(Cl)c(OC)cc(OC)c4Cl)ccc3n2)CC1 [Compound 63] , what IC50 is on record?
RESULT: 196

QUERY: For the compound C=CC(=O)N1C[C@@H]2C[C@H]1[C@@H]2Nc1ncc2cc(-c3c(Cl)c(OC)cc(OC)c3Cl)ccc2n1 (relative stereo) [Compound 11] , what IC50 is on record?
RESULT: 198

QUERY: For the compound C=CC(=O)N1CC(Nc2ncc3cc(-c4c(Cl)c(OC)cc(OC)c4Cl)ccc3n2)C1 [Compound 9] , what IC50 is on record?
RESULT: 301

QUERY: For the compound C=CC(=O)N1CC[C@@H](Nc2ncc3cc(-c4c(Cl)c(OC)cc(OC)c4Cl)ccc3n2)C1 [Compound 6] , what IC50 is on record?
RESULT: 780

QUERY: For the compound C=CC(=O)N1C[C@@H](Nc2ncc3cc(-c4c(Cl)c(OC)cc(OC)c4Cl)ccc3n2)C[C@H]1C(=O)NC [Compound 37] , what IC50 is on record?
RESULT: 317
